The reported measurements were obtained from the supplement of paper PMC9170038.

tested on: K4 kissing-loop RNA reporter; test: apparent KD of K4 kissing-loop reporter; higher = weaker reporter binding; conditions: Eterna round: R107; input ligand: none;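 also: bound reporter read as fluorescence of individual clusters on recovered sequencing chips by microscopy, with normalized cluster intensities fitted with a binding model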
PROPERTY: apparent KD of K4 kissing-loop reporter (nM)

INSERT INTO measurements (sequence, study_target, value_unit, readout_number) VALUES
  ('UCUGUUGUAUAUGAUACCAGCAGUGAGAGAUGAGAAGUAUAGUGAUGUUAUAUGAGAGAAUGCCCUUGGCAGCGUGUGCGUGUGG [SSTheophylB.aC]', 'K4 kissing-loop RNA reporter', 'nM', 83.2),
  ('AAGCAGUCAGGAUCGAAGAUCCUGCAAAACCGAGGACCGGUACGGCCGCCACUCGGAGUGAUGUUCCGAAGACUGCAAAAUAAAA [#SwitchBubble 6]', 'K4 kissing-loop RNA reporter', 'nM', 213),
  ('AAGCAGUCACUCGAAGCCAUCGAAGAUGGGCGAGGACCGGUACGGCCGCCACUCGGAGUGAUGUUCCGAAGACUGCAAAAUAAAA', 'K4 kissing-loop RNA reporter', 'nM', 498),
  ('CUGACGAUGACACGGUGGCCGCUGGUCGUGCGAGGACCGGUACGGCCGCCACUCGCAUGAGUGAUGUUCAUGUGUCGUCGUCGUC [#08 K4 Tryptophan A Exclusion]', 'K4 kissing-loop RNA reporter', 'nM', 111),
  ('AGUUAUGUAUCAGGAUAUUAGUGAUGUUUGUUUAUGUUAGUGAUGUUGAUAUUUGUUUUAUGUAUUUAAGAAGGGAUUGAGAUGU [ccgcmullin]', 'K4 kissing-loop RNA reporter', 'nM', 48),
  ('AGAGUUAUGAGAGGAUAUGCGGCUAGUACUCAAAGAGUACUAGCAGCAGAGUGAUGUUCUGUGAAAGCAGAAGGUUCAUAACUCA [#06 K4 FMN B Same State]', 'K4 kissing-loop RNA reporter', 'nM', 627);

----------
tested on: MS2 coat protein; experiment: apparent KD of MS2 coat protein, switch OFF state (with FMN for OFF switches, without FMN for ON switches); designed switch direction (-1 OFF switch, 1 ON switch): -1; higher = weaker reporter binding; details: FMN input: 0 or 200 uM; Eterna round: R93 (includes R88 designs)
PROPERTY: apparent KD of MS2 coat protein (nM)

INSERT INTO measurements (sequence, readout_number) VALUES
  ('AAAAGUGGAGGAUAUACAUGAGGAUCACCCAUGUGUAAAAAUAAAUACACAAAAGAAAGUAGAAGGCCACAAAG [Mat - Exclusion 3 - Mayanna mod - D117]', 128),
  ('GAAAGGGCAGGAUAUGCGGAGAGAGAGAGAGAGAGAGAGAGACAUGAGGAUCACCCAUGUAGAAGGGCCGAAAG [salish99-ex2-08]', 38.6),
  ('AAGAAGUGAGGAUAUGCUGCUCGUCACUUGCGUGAUGAGUAGCAGAAGGCACAUGAGGAUCACCCAUGUAAAAA [Mat - Exaclusion 4 - Eli mod - D2]', 45.7),
  ('GACACCGGAGGAUAUACAAGUCCUUACUGUCUAAAACCAUGACAUGAGGAUCACCCAUGUAGAAGGCCGAAAAG [Atbela]', 118),
  ('AAGAAGGGAGGAUAUACAAAAUAAAAGAAAAGAAAGAAAGAACAUGAGGAUCACCCAUGUAGAAGGUCCAAGAA [Imyremeshaw]', 71),
  ('AACCGACAUGAGGAUCACCCAUGUAAGGAUAUGCAUCCUUCGGCCCGGACCAGAGGAAGCAGAAGGUGCAGGGA [Iscegebia]', 41.2),
  ('AAACUACUAGGAUAUACAACGGUGUCCUAACUACUAAGAAGACAUGAGGAUCACCCAUGUAGAAGGAGUAGUGA [Sosogeen]', 37.8),
  ('AAACCACAUGAGGAUCACCCAUGUGAGGAUAUGAACGAAAAUAAAUAAAAAUAAAAGUUCAGAAGGCACAAAAA [66%, Wbt, 12]', 23.6),
  ('GCUGGCCAAGGAUAUACAUGAGGAUCACCCAUGUGAGAGAAAAAAGUGAGAAAGAAAAGUAGAAGGUGGUUAGG [salish99-ex3-114]', 41),
  ('AACAAGACAGGAUAUACAUGAGGAUCACCCAUGUCACAACAAAGCAGCGCAACACAAAGUAGAAGGGUCAUGGA [Ruby 11]', 82.6),
  ('AAAAAGUGAGGAUAUGGUAAAAAAAAAAAAAAAAAAAACCUCCAGAAGGCACAUGAGGAUCACCCAUGUCAAAA [Jolly''s Folly 3 - Jieux - Exclusion 4]', 19),
  ('AGUCGGCGAGGAUAUACAUGAGGAUCACCCAUGUGAGAGAAAAAAGUGAGCAAGAAAUGUAGAAGGCGCUGACA [JL Lego Mod 3]', 61.9),
  ('AACAAACAUGAGGAUCACCCAUGUAAGGAUAUACGAAACAAACAAACAAACAAACAAAGUAGAAGGUACAGGAA [Exclusive 1]', 16.3),
  ('GAAAAGGUAGGAUAUACGAAAAAAAAGGGUAGAAAAAAAACACAUGAGGAUCACCCAUGUAGAAGGACCAAAAG [Mat - Exclusion 2 - Tesla mod - D30]', 602),
  ('AACAGGAGAGGAUAUACAUGAGGAUCACCCAUGUAGGAAACAAGCAGAGUACCAAAAAGUAGAAGGCUCAUGGA [Ruby 32]', 43.1),
  ('AAGAACCAAGGAUAUACAAAAUAAAAGAAAAGAAAGAAAGAACAUGAGGAUCACCCAUGUAGAAGGUGGAAGAA [Khaankhre Sobekhotep]', 41.6),
  ('CUCUUGUGAGGAUAUGCAAGAAAAGAAAAGAAAGAAAAGAAGCAGAAGGCACAUGAGGAUCACCCAUGUAAGAA [EteRNA is fun!]', 25.9),
  ('AACAGUACAGGAUAUACAUGAGGAUCACCCAUGUGAAAAUUAAGUGGCGUACCACAAAGUAGAAGGGUACUGAA [Moding Maslow Revisited (73) 26]', 125),
  ('UAAAGACAUGAGGAUCACCCAUGUGAGGAUAUCGGAGAUGACGGAACAUCAAGUUCGGCGAGAAGGCGCAGGAA [JR_Exc001_Sub406]', 30.7),
  ('UACGUAUGAGGAUAUACAAACAGAAAAAUCAGACGUAAGUGACAUGAGGAUCACCCAUGUAGAAGGCAUAUGCA [JR_Exc002_Sub906]', 19.7),
  ('ACCAAUGGAGGAUAUACAUGAGGAUCACCCAUGUAUAACCUACAUAGGUGAAAAAAAUGUAGAAGGCCAUUGGA [EX3 233: Super Stable 33]', 16.9),
  ('AACUAGUCAGGAUAUACGAACAUGUCAAAAGACAUGAAGGGACAUGAGGAUCACCCAUGUAGAAGGGACUAGCA [74%, Web mod - With 2 less G''s]', 148),
  ('AAAACUGGAGGAUAUACAUGAGGAUCACCCAUGUGUGGAUGAGCUGUGUCGGCGUCAGGUAGAAGGCCACAAAA [Gilly Gone Silly 35 - Jieux - Exclusion 3]', 43.1),
  ('AAGCCACAUGAGGAUCACCCAUGUAAGGAUAUGAACGAAAAUAAAUAAAAAUAAAAGUUCAGAAGGUACAAAAA [66%, Wbt, 23]', 25.3),
  ('AAAAAGGGAGGAUAUACAUGAGGAUCACCCAUGUAUCAGACGAAAAAGAGUCUGAAAAGUAGAAGGCCCAAAAA [65%, Moding Exclusion3-cac2, 6]', 20.8);

----------
tested on: MS2 coat protein; assay: apparent KD of MS2 coat protein; designed switch direction (-1 OFF switch, 1 ON switch): 1; higher = weaker reporter binding; conditions: input ligand: microRNA oligo, concentration not stated
apparent KD of MS2 coat protein overview
PROPERTY: apparent KD of MS2 coat protein (nM)

INSERT INTO results (sequence, value_unit, readout_number) VALUES
  ('GCGAAGAGGUAAGGAUAUGCAUGGCGGAGACAUGAGGAUCACCCAUGUUGGAGACGAAAUCUAGGGUAGAAGGUACCGGGAAGC [ssng2 v2 b] (Eterna round: R96, puzzle: Same State NG 2)', 'nM', 70.2),
  ('CAUCCCUCCACAGGAUAUCGACCGAUAAAACGGCGAGAAGGGUGGCCACAUGAGGAUCACCCAUGUGGAAUUGGAUGAGCUACA [Enlaed] (Eterna round: R96, puzzle: Same State NG 1)', 'nM', 66.6),
  ('UUGAAGAAUUAAGGAUAUUGAUUACAUAUGUUAAACAUGAGGAUCACCCAUGUGGGUUGCGGUAUCGAGAAGGUAAAUUACUAG [Mat - same State NG 2 - JL mod - D76] (Eterna round: R96, puzzle: Same State NG 2)', 'nM', 74.1),
  ('GAGCCAGUCCGAGGAUAUUACAUGAGGAUCACCCAUGUAGGCUCAGAAAAGAAAAGAGAGCCUUGGGAGAAGGCGGACUGGCUC [Xeonanisa<<9] (Eterna round: R96, puzzle: Same State NG 2)', 'nM', 20.1),
  ('GGAUGAUGGACAGGAUAUUGAUUGUAAUGGUGUCAAGAAGGGUCUUUGAUUUAAACGACCAGUUACAUGAGGAUCACCCAUGUU [JR_SSNG1_Sub031] (Eterna round: R96, puzzle: Same State NG 1)', 'nM', 107);
